Data credit: patent EP4644419A1

subject-of-test: T1, human CD112R on antigen-specific CD8+ T cells (human, UniProt Q6DKI7 1-326)
T1 sequence (looked up): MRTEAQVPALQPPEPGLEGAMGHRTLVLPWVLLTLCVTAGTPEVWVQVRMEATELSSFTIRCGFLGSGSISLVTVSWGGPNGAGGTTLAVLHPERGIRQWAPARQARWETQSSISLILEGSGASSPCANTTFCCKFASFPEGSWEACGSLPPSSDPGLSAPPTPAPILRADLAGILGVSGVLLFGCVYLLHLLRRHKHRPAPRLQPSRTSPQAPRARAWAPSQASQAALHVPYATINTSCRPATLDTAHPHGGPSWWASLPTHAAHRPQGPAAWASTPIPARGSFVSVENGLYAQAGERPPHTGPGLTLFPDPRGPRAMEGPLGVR
protocol: cell-based or functional assay
Attribute: IFN-γ(pg/ml) at 0.5µg/ml antibody

{"binder": "C14 (antibody, human IgG1, kappa, V domains shown) VH: QVQLQQPGAELVRPGTSVKLSCKASGNTFTSYWMHWVKQRPGQGHEWIGVIDASDSNTKYNQKFKGKATLTVDTSSSTAYMQLSSLTSEDSAVYYCARYYSGSSYGLDYWGQGTTLTVSS VL: DIQMTQTASSLSASLGDRVTISCRASQDISNYLNWYQQKPDGTVKLLIYYTSRLHSGVPSRFSGSGSGTDFSLTITHLEQEDIASYFCQQGNMFPPTFGGGTKLEIKR", "measured-parameter": "IFN-γ(pg/ml) at 0.5µg/ml antibody", "meas-value": "619 pg/mL"}

In the following, a different binder is considered.
# lookup: IFN-γ(pg/ml) at 0.5µg/ml antibody of C4 (antibody, human IgG1, kappa, V domains shown) VH: EVQLQQSGPELVKPGASVKISCKASGYTFTDYFMNWVKQSHGKSLEWIGDIIPNNDSPNYNQKFKGKATLTVDKSSNTAYMELRSLTSEDSAVYYCASGYFDVWGTGTTVTVSS VL: DIVMTQSPSSLSVSAGEKVTMSCKSSQSLLNSGNQKNFLAWYQQKPGQPPKLLIYGTSTRESGVPDRFTGSGSGTDFTLTISSVQAEDLAVYYCQNDHSYPWTFGGGTKLEIKR
663 pg/mL
